# Test system: SMN protein in spinal muscular atrophy (SMA) patient fibroblasts (GM03813, Coriell)
# assay.procedure: SMN protein assay, Mesoscale Discovery (MSD)
# Format: cell-based, human
# run.parameters: SMA patient fibroblasts (GM03813), 48 hours
measured.parameter: SMN2 protein EC50

The cases that follow already have their SMN2 protein EC50 on record.
{"compound": "CN(c1ccc(-c2cc3ncn(CC(F)(F)F)c(=O)c3cc2O)nn1)[C@H]1C[C@@H]2CC[C@H]([C@H]1F)N2C (single isomer, unassigned) [Compound 108B]", "measured.parameter": "SMN2 protein EC50", "readout.value": "E (501 ≤ E ≤ 10.000)"}
{"compound": "CN(c1ccc(-c2ccc(C(F)F)cc2O)nn1)[C@@H]1C[C@H]2CC[C@H](N2)[C@@H]1F (single isomer, unassigned) [Compound 120A]", "measured.parameter": "SMN2 protein EC50", "readout.value": "E (501 ≤ E ≤ 10.000)"}
{"compound": "CN(c1ccc(-c2cnc(-c3cnn(C)c3)nc2O)nn1)[C@H]1C[C@@H]2CC[C@@H](N2)[C@H]1F (racemic)", "measured.parameter": "SMN2 protein EC50", "readout.value": "E (501 ≤ E ≤ 10.000)"}
{"compound": "CN(c1ccc(-c2cc3ncn(CC(F)(F)F)c(=O)c3cc2O)nn1)[C@@H]1C[C@H]2CCC[C@@H]([C@@H]1F)N2C (single isomer, unassigned) [Compound 109A]", "measured.parameter": "SMN2 protein EC50", "readout.value": "E (501 ≤ E ≤ 10.000)"}
{"compound": "CN(c1ccc(-c2cc3ncn(CC(F)(F)F)c(=O)c3cc2O)nn1)[C@@H]1C[C@H]2CC(F)(F)[C@@H](C1)N2C (single isomer, unassigned) [Compound 110A]", "measured.parameter": "SMN2 protein EC50", "readout.value": "E (501 ≤ E ≤ 10.000)"}
{"compound": "CN(C)C(=O)c1cc(O)c(-c2ccc(N(C)[C@H]3C[C@@H]4CC[C@H]([C@H]3F)N4C)nn2)cc1F (single isomer, unassigned) [Compound 104B]", "measured.parameter": "SMN2 protein EC50", "readout.value": "E (501 ≤ E ≤ 10.000)"}
{"compound": "Cc1nc2cc(-c3ccc(N(C)[C@H]4C[C@@H]5CC[C@H]([C@H]4F)N5C)nn3)c(O)cc2c(=O)n1CC(F)(F)F (single isomer, unassigned) [Compound 130B]", "measured.parameter": "SMN2 protein EC50", "readout.value": "E (501 ≤ E ≤ 10.000)"}
{"compound": "CN(c1ccc(-c2cc3ncn(CC(F)(F)F)c(=O)c3cc2O)nn1)[C@H]1C[C@@H]2CC(F)(F)[C@H](C1)N2C (single isomer, unassigned) [Compound 110B]", "measured.parameter": "SMN2 protein EC50", "readout.value": "E (501 ≤ E ≤ 10.000)"}
{"compound": "CN(c1ccc(-c2ccc(Oc3nccn3C)cc2O)nn1)[C@@H]1C[C@H]2CC[C@H](N2)[C@@H]1F (single isomer, unassigned) [Compound 123A]", "measured.parameter": "SMN2 protein EC50", "readout.value": "E (501 ≤ E ≤ 10.000)"}
{"compound": "Cc1nc2cc(-c3ccc(N(C)[C@@H]4C[C@H]5CC[C@@H]([C@@H]4F)N5C)nn3)c(O)cc2c(=O)n1CC(F)(F)F (single isomer, unassigned) [Compound 130A]", "measured.parameter": "SMN2 protein EC50", "readout.value": "E (501 ≤ E ≤ 10.000)"}

QUERY: I'd like to know its SMN2 protein EC50. The compound in question is CN1[C@@H]2CC[C@H]1[C@H](F)[C@H](N(c1ccc(-c3cc4ncn(CC(F)(F)F)c(=O)c4cc3O)nn1)C1CC1)C2 (single isomer, unassigned) [Compound 111A]
RESULT: E (501 ≤ E ≤ 10.000)

QUERY: I'd like to know its SMN2 protein EC50. The compound in question is CN(c1ccc(-c2ccc(C(F)F)cc2O)nn1)[C@H]1C[C@@H]2CC[C@@H](N2)[C@H]1F (single isomer, unassigned) [Compound 120B]
RESULT: E (501 ≤ E ≤ 10.000)

QUERY: I'd like to know its SMN2 protein EC50. The compound in question is CN1[C@H]2CC[C@@H]1[C@@H](F)[C@@H](N(c1ccc(-c3cc4ncn(CC(F)(F)F)c(=O)c4cc3O)nn1)C1CC1)C2 (single isomer, unassigned) [Compound 111B]
RESULT: E (501 ≤ E ≤ 10.000)

Value source: patent US12509460B2
